Settings: in methanol, 278.2 K
observable: solubility (mole fraction)
No unit in the answer, only the number.

Value of solubility (mole fraction) reported for the compound `CC(C)(C)NSc1nc2ccccc2s1` is 0.00707

* * *

Settings: in methanol, 283.2 K
observable: solubility (mole fraction)

Briefly, solubility (mole fraction) measured for `CC(C)(C)NSc1nc2ccccc2s1` : 0.00834

* * *

Settings: in isopropanol, 298.2 K
observable: solubility (mole fraction)
Number only, no unit.

# solubility (mole fraction) of `CC(C)(C)NSc1nc2ccccc2s1` = 0.0208

* * *

Details: in tert-butylamine, 298.2 K
observable: solubility (mole fraction)
// no unit, no text: just the number

Record summary for `CC(C)(C)NSc1nc2ccccc2s1` : reported solubility (mole fraction) = 0.149
